Target: T1, Myo5, Q04439
T1 sequence (Q04439 1072-1160, looked up): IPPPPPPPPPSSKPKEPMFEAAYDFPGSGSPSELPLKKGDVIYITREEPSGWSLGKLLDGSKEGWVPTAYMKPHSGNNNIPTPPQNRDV
Assay: SPOT array
Settings: median of control spots 471
observed.property: SPOT intensity

(I) GAGERPRLVPRPINV
(II) PSRRDSLSIPRAVDA
Task item: Smaller SPOT intensity value, I vs II ? // return label of chosen record
Reply: I
(I: 1, II: 2)

(I) ERPKRRAPPPVPKKP
(II) PELAPKREAPKPPAN
(III) GQYRRTIVIPRRFFT
(IV) TKRKRPARLIFYDSK
Task item: Order the records, beginning with the lowest SPOT intensity and ending with the highest. Output the labels ranked as instructed.
Reply: III, IV, I, II
(III: 2, IV: 3, I: 180, II: 262)

(P) NPTKSPPPPPSPSTM
(Q) SSSSSPPPLPTRRDH
Task item: Between P and Q , which one has the lower reported SPOT intensity value? Reply briefly: the label of your chosen item.
Reply: Q

(A) ALFRLSFFFPLDPAY
(B) GATNNAPTLPKRKNP
Task item: For the pair A and B , which entry has the numerically smaller recorded SPOT intensity? Answer format: the label of the selected item.
Reply: B
(B: 0, A: 17)
